LEUKOCYTE COUNT reference
- Species on record: Rattus norvegicus
- assayName: DrugMatrix - Regimen: Daily Repeat
- Assay type: toxicity, organism-based, Sprague-Dawley
- Parameters: regimen Daily Repeat, gender Male, age 6-8 weeks
- experimentalConditions: in vivo, po, 0 mg/kg, 72 h, tissue Blood, route oral GAVAGE, dose level Control, time 3 day, vehicle 100 % WATER
propertyName: LEUKOCYTE COUNT (x10E3/uL)

[[record]]
recordsmiles = "NC12CC3CC(CC(C3)C1)C2"
propertyname = "LEUKOCYTE COUNT"
measuredvalue = 12.87

[[record]]
recordsmiles = "C#Cc1cccc(Nc2ncnc3cc(OCCOC)c(OCCOC)cc23)c1"
propertyname = "LEUKOCYTE COUNT"
measuredvalue = 13.95

[[record]]
recordsmiles = "CN(C)CCC=C1c2ccccc2CCc2ccccc21"
propertyname = "LEUKOCYTE COUNT"
measuredvalue = 12.87

[[record]]
recordsmiles = "CCN(C(C)=O)c1cccc(-c2ccnc3c(C#N)cnn23)c1"
propertyname = "LEUKOCYTE COUNT"
measuredvalue = 12.87


###

- Organism: Rattus norvegicus
- assayName: DrugMatrix - Regimen: Daily Repeat
- Assay type: toxicity, organism-based, Sprague-Dawley
- Set-up: regimen Daily Repeat, gender Male, age 6-8 weeks
- experimentalConditions: in vivo, po, 0 mg/kg, 72 h, tissue Blood, route oral GAVAGE, dose level Control, time 3 day, vehicle .5 % CMC
HEMOGLOBIN reference
propertyName: HEMOGLOBIN (G/DL)

[[record]]
compound = "C[C@@](Cc1ccc(O)c(O)c1)(NN)C(=O)O.O"
measuredvalue = 13.45

[[record]]
compound = "C#C[C@]1(O)CC[C@H]2[C@@H]3CCC4=CC(=O)CC[C@]4(C)[C@H]3CC[C@@]21C"
measuredvalue = 14.1

[[record]]
compound = "CCOc1nc2cccc(C(=O)O)c2n1Cc1ccc(-c2ccccc2-c2nnn[nH]2)cc1"
measuredvalue = 13.35

[[record]]
compound = "C[C@]12CC[C@@H]3c4ccc(O)cc4CC[C@H]3[C@@H]1C[C@@H](O)[C@@H]2O"
measuredvalue = 13.68

[[record]]
compound = "NC(=O)N1c2ccccc2CC(=O)c2ccccc21 [OXCARBAZEPINE]"
measuredvalue = 14.22

[[record]]
compound = "CCCNC(=O)NS(=O)(=O)c1ccc(Cl)cc1 [CHLORPROPAMIDE]"
measuredvalue = 14.92

[[record]]
compound = "C[C@H]1[C@H](NC(=O)/C(=N\\OC(C)(C)C(=O)O)c2csc(N)n2)C(=O)N1S(=O)(=O)O"
measuredvalue = 13.45

[[record]]
compound = "CN1CCN(C2=Nc3cc(Cl)ccc3Nc3ccccc32)CC1"
measuredvalue = 14.92

[[record]]
compound = "CCC1=C(C)CN(C(=O)NCCc2ccc(S(=O)(=O)NC(=O)N[C@H]3CC[C@H](C)CC3)cc2)C1=O [GLIMEPIRIDE]"
measuredvalue = 13.82

[[record]]
compound = "COc1ccc2c(c1OC)C(=O)O[C@@H]2[C@H]1c2c(cc3c(c2OC)OCO3)CCN1C"
measuredvalue = 14.1

[[record]]
compound = "COc1ccccc1[N+](=O)[O-]"
measuredvalue = 12.02

[[record]]
compound = "CN(C)C(=O)C(CCN1CCC(O)(c2ccc(Cl)cc2)CC1)(c1ccccc1)c1ccccc1 [LOPERAMIDE]"
measuredvalue = 13.82

